Target system: T1, recombinant rat MASP1 active protease (amino acids 302-704, C-terminal His Tag) (rat, UniProt Q8CHN8 302-704)
T1 sequence: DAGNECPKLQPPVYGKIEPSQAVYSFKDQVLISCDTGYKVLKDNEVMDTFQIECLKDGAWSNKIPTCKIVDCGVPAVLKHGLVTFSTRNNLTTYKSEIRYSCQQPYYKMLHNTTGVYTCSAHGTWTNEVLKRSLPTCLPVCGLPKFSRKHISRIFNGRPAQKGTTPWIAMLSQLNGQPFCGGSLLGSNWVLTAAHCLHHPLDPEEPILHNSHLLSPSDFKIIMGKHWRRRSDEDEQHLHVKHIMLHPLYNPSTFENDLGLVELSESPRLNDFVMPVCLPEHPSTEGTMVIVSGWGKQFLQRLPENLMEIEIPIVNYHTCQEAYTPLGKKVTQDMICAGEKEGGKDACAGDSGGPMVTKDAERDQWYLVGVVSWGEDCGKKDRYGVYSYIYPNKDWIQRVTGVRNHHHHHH
Protocol text: cell-based or functional assay
Bridge positions count the residues as written; N and C are the ends. Square brackets hold non-standard residues; d marks the D form. Ends that are not written are not given here. Oic = O=C(O)[C@@H]1C[C@@H]2CCCC[C@@H]2N1; tBuAla = CC(C)(C)C[C@H](N)C(=O)O; Pen = CC(C)(S)[C@H](N)C(=O)O; NMeC = CN[C@@H](CS)C(=O)O; Sar = CNCC(=O)O
Test readout: rat MASP1 IC50 (nM)
Express your answer in nM, writing the number without its unit.

// known answers, use as guide
Binder: [Sar]ICSRSLP[Oic]I[Pen]IPDA-OH (disulfide 3-11; N-terminus assumed; SMILES CC[C@H](C)[C@H](NC(=O)CNC)C(=O)N[C@H]1CSSC(C)(C)[C@@H](C(=O)N[C@H](C(=O)N2CCC[C@H]2C(=O)N[C@@H](CC(=O)O)C(=O)N[C@@H](C)C(=O)O)[C@@H](C)CC)NC(=O)[C@H]([C@@H](C)CC)NC(=O)[C@@H]2C[C@@H]3CCCC[C@@H]3N2C(=O)[C@@H]2CCCN2C(=O)[C@H](CC(C)C)NC(=O)[C@H](CO)NC(=O)[C@H](CCCNC(=N)N)NC(=O)[C@H](CO)NC1=O) [Example 494: ((N-Me)G)-IC+SRSLP-(Oic)-I-(Pen)+IPDA-OH]
Recorded measurement: 38
//
Binder: [Sar]ICSRS[tBuAla]PPI[Pen]IP-{PEG5‑CH2CO2H(18 atoms)-OH} (disulfide 3-11) [Example 496: ((N-Me)G)-IC+SRS-((tBu)A)-PPI-(Pen)+IP-(PEG5-CH2CO2H(18 atoms))-OH]
Recorded measurement: 31

Note: attention shifts to another entry.
Query: So what does the record say about rat MASP1 IC50 for AICSRS[tBuAla]PPI[NMeC]IPD-OH (disulfide 3-11; N-terminus assumed; SMILES CC[C@H](C)[C@H](NC(=O)[C@H](C)N)C(=O)N[C@H]1CSSC[C@@H](C(=O)N[C@H](C(=O)N2CCC[C@H]2C(=O)N[C@@H](CC(=O)O)C(=O)O)[C@@H](C)CC)N(C)C(=O)[C@H]([C@@H](C)CC)NC(=O)[C@@H]2CCCN2C(=O)[C@@H]2CCCN2C(=O)[C@H](CC(C)(C)C)NC(=O)[C@H](CO)NC(=O)[C@H](CCCNC(=N)N)NC(=O)[C@H](CO)NC1=O) [Example 86: AIC+SRS-((tBu)A)-PPI-((N-Me)C)+IPD-OH] ?
Reply: 16
